Listed here are molecules together with their documented pIC50.
# MEASURED_ON: APE1 (Homo sapiens, UniProt P27695)
# Construct: made in house
# Sequence (P27695 whole entry): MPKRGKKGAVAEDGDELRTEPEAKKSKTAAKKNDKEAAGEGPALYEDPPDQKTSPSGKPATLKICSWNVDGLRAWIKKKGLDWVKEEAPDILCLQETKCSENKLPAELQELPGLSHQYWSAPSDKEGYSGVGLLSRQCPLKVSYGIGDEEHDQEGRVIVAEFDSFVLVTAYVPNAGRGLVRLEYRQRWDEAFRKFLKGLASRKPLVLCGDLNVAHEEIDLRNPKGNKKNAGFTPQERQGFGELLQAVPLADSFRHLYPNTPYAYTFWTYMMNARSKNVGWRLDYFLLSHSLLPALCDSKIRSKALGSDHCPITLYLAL
# TEST_NAME: Fluorogenic kinetic qHTS APE1 incision assay (primary screen and retest of cherrypicked samples)
# Assay type: biochemical
# RECORDED_CONDITIONS: initial quantitative high-throughput screen; read-out: APE1 qHTS IC50
// pIC50: -log10(molar conc.)

Example entries and their recorded answers appear below.
State pIC50 on APE1 (Homo sapiens, UniProt P27695). Entry: `O=C1CCCC(O)=C1N=Nc1ccc(C(=O)O)cc1`
5.05

Write down measured pIC50 (APE1 (Homo sapiens, UniProt P27695)) for this molecule. CCC(C)C(=O)OCC1(c2ccc(C)cc2OC(=O)C(C)C)CO1 (stereo not shown)
5.05

Provide APE1 (Homo sapiens, UniProt P27695) pIC50 reading for `CN(C)C(=O)Nc1ccc(Cl)c(Cl)c1` .
4.70

Report value: pIC50, system: APE1 (Homo sapiens, UniProt P27695), molecule: `Cc1ccc2c(=O)c3ccccc3n(CCCN)c2c1C`
5.35

State pIC50 (APE1 (Homo sapiens, UniProt P27695)) of `O=C1COc2ccc(C(=O)COC(=O)/C=C/c3ccc(Br)o3)cc2N1` .
5.33

Output reported pIC50 of the molecule `Cn1cnnc1SCC(=O)Nc1nc(-c2ccccc2)cs1` on APE1 (Homo sapiens, UniProt P27695).
4.55

New cases:
Param request: pIC50 | system APE1 (Homo sapiens, UniProt P27695) | item `O=C(COC(=O)c1ccccc1)Nc1ncc([N+](=O)[O-])s1`
5.47

Enter pIC50 (test system APE1 (Homo sapiens, UniProt P27695)) for `Nc1ccc2c(c1Cl)C(=O)c1ccc(N)c(Cl)c1C2=O`
5.05

Report pIC50 from APE1 (Homo sapiens, UniProt P27695) testing of `COc1ccc2c(c1)c(=O)oc1cc(OCC(=O)N3CCc4ccccc4C3)ccc12`
5.00

Report measured pIC50 on APE1 (Homo sapiens, UniProt P27695); entry: COc1ccc(C(CC(=O)N2CCCCC2)c2c(OC)cc(OC)c3c(-c4ccccc4)cc(=O)oc23)cc1 (stereo not shown)
4.60

----------
The reader will find reported pIC50 values listed item by item below.
# MEASURED_ON: E. coli Endo IV (Escherichia coli, UniProt P0A6C1)
# Construct: made in house
# TEST_NAME: E. coli Endo IV profiling counterscreen;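 further: selectivity counterscreen of candidate APE1 inhibitors against the bacterial endonuclease Endo IV, run in the same assay format as the primary APE1 high-throughput screen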
# Type: biochemical
# RECORDED_CONDITIONS: read-out: EndoIV IC50
pIC50: −log10 of the molar value.

Use the examples below as a reference point.
Tell me measured pIC50 for O=C(O)C1CCCCC1C(=O)Nc1cccc(Br)c1 (stereo not shown) please.
< 4.24

# return recorded pIC50 for entry `CC(=O)[C@]1(O)Cc2c(O)c3c(c(O)c2[C@@H](O[C@H]2C[C@H](N)[C@H](O)[C@H](C)O2)C1)C(=O)c1ccccc1C3=O`
4.60

Give the value of pIC50 reported for the following: `O=C1NN(c2ccccc2)C(=O)/C1=C/c1ccc(-c2ccc(Cl)c(C(=O)O)c2)o1`
< 4.24

API: the following record is the query input.
Please supply the value of reported pIC50 for the item `COc1cc(-c2nnc(COC(=O)c3ccc(C)o3)o2)cc(OC)c1OC`
< 4.24

----------
In this section we review reported pIC50 values for a set of molecules.
# MEASURED_ON: APE1 (Homo sapiens)
# Construct: made in house
# TEST_NAME: Gel-based APE1 incision assay with fluorescence (TAMRA) detection
# Format: biochemical
# RECORDED_CONDITIONS: estimated IC50, fluorophore detection; entries 113-223; read-out: F-PAGE Assay IC50
Scale note: pIC50 = -log10(concentration in M).

Example cases with answers are listed next.
Please look at `Cc1cccc(NC(=O)CNC(=O)c2cccc(-n3cccc3)c2)c1C` and tell me its recorded pIC50 on APE1 (Homo sapiens).
5.96

Quote APE1 (Homo sapiens) pIC50 for entry `COc1ccc(NC(=O)CN(C)C(=O)c2cc3c(s2)CCC3)cc1` .
7.00

Provide pIC50, system APE1 (Homo sapiens), entry `CCCN(C(=O)c1cccc(-n2cccc2)c1)c1c(N)n(Cc2ccccc2)c(=O)[nH]c1=O`
5.55

Fill in: pIC50 on APE1 (Homo sapiens), entry `NS(=O)(=O)c1ccc(N=Nc2ccc(=O)[nH]c2O)cc1`
5.46

Would you please give the reported pIC50 of O=C(O)C1Nc2ccc(Br)cc2C2C=CCC12 (centres unmarked) with APE1 (Homo sapiens)?
5.20

Further cases:
Please report the measured pIC50 for NS(=O)(=O)c1cc(C(=O)NC2CCSc3ccccc32)ccc1Cl (centres unmarked) tested on APE1 (Homo sapiens).
7.00

Tell me its pIC50 on APE1 (Homo sapiens): `Nc1c(S(=O)(=O)O)cc(NC(=O)c2ccccc2)c2c1C(=O)c1ccccc1C2=O`
5.10

Param request: pIC50 | system APE1 (Homo sapiens) | item `CC(=O)c1cccc(OCC(=O)N(C)CC(=O)NCc2ccco2)c1`
5.40

Fill: pIC50 (APE1 (Homo sapiens)) for this molecule `NC(=O)c1ccc(NC(=O)COC(=O)c2cc3c(s2)CCC3)cc1`
5.46

# lookup: APE1 (Homo sapiens) pIC50, key = `CC(C)(C)OC(=O)C[C@@H]1C/C=C\C[C@H](CC(=O)NCCO)C(=O)N2CCC[C@H]2COC1=O`
5.10

Tell me pIC50 of Cc1ccc(NC(=O)C(c2ccccc2)N2CCN(CC(=O)N3CCOCC3)CC2)cc1Cl (centres unmarked) when tested on APE1 (Homo sapiens).
5.46

Enter recorded pIC50 with APE1 (Homo sapiens) for `O=S(=O)(Nc1ccccc1)c1cccc2nsnc12` here.
5.00

----------
Reported log10 of IC50 values are given for each entry in this list.
# MEASURED_ON: APE1 (Homo sapiens, UniProt P27695)
# Construct: made in house
# TEST_NAME: Fluorogenic kinetic qHTS APE1 incision assay (primary screen and retest of cherrypicked samples);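 further: purified APE1 cleaving a fluorophore/dark-quencher labelled 17-mer duplex DNA bearing a tetrahydrofuran AP site, fluorescence rise followed kinetically over the first 2 min, inhibition normalized to controls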
# Format: biochemical
# RECORDED_CONDITIONS: retest of cherrypicked sample; read-out: APE1 Retest IC50
Quick note: numbers are log10 of IC50, with µM as the unit.

Given Cn1cccc1/C=C1\C(=O)NC(=O)N(Cc2ccco2)C1=O [MLS000677191] , respond with its log10 of IC50.
0.65

Indicate the recorded log10 of IC50 value for this molecule: N#Cc1ccccc1CN1C(=O)S/C(=C/c2cccn2-c2cccc(C(=O)O)c2)C1=O [MLS000539676]
1.15

Please list log10 of IC50 recorded for the molecule Cc1ccc2c(=O)c3ccccc3n(CCCN)c2c1C [NCGC00161415]
1.00

Please report the measured log10 of IC50 for Cc1c2c(c(O)c3c(O)cccc13)C(=O)O[C@H]2C1C(N(C)C)C(O)=C(C(N)=O)C(=O)[C@H]1O (stereo partly drawn) [NCGC00163605]
0.20

Indicate its recorded log10 of IC50; the molecule in question is Nc1c(/C=C2/C=CC(=O)C(O)=C2)c(=O)nc2sc(CC(=O)N3CCCCC3)nn12 [MLS001139223]
0.30

Please look at this molecule and report its log10 of IC50: O=C(O)CCCN1C(=O)/C(=C/C=C/c2ccco2)SC1=S [MLS000778631]
0.70

Fill in log10 of IC50 for record CC(C)C(C(=O)O)N1C(=O)/C(=C/C=C/c2ccco2)SC1=S (stereo not drawn) [MLS000551672]
0.40

State its log10 of IC50 for this molecule: Oc1cc(O)c2c(c1)OC(c1ccc(O)c(O)c1)C(O)C2 (stereo not drawn) [NCGC00095270]
0.45

Note down log10 of IC50 recorded for NS(=O)(=O)c1ccc(N=Nc2ccc(=O)[nH]c2O)cc1 [MLS000738241]
1.11

Answer with reported log10 of IC50 of O=C(COC(=O)c1cc2c(s1)CCC2)Nc1ccc(F)cc1 [MLS000334872]
1.00

More entries:
Tell us which log10 of IC50 value is on record for O=C(NC1CC1)C1CCN(S(=O)(=O)c2cc([N+](=O)[O-])ccc2Cl)CC1 [MLS002162311]
1.51

Please look at this molecule and report its log10 of IC50: Cc1c(O)cc2c(c1O)C(=O)CC(c1ccc(O)cc1)O2 (stereo not drawn) [MLS000876957]
0.65

Retrieve log10 of IC50 measured for COCCN(C(=O)COC(=O)c1cc2c(s1)CCC2)c1c(N)n(Cc2ccccc2)c(=O)[nH]c1=O [MLS001080179] and print it.
0.04

Quote log10 of IC50 reported for N[C@H](Cc1ccc(O)c(O)c1)C(=O)O [NCGC00093869] please.
0.54

For the molecule COc1ccc(OCCOc2ccc(/C=C3\C(=N)N4N=C(C)SC4=NC3=O)cc2)cc1 [MLS001359901] , give its measured log10 of IC50 value.
0.76
